Test: M. tuberculosis growth inhibition, HTS (AID 449762);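 also: bacterial growth assessed after seven days of incubation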
Settings: M. tuberculosis H37Rv growth inhibition, 7H9 media; at 25 µM; active compounds read high
The whole screen tested about 330,000 compounds, of which about 1,900 (0.58%) were called active. Inconclusive results (about 4%) are left out. Not all results are given here. Entries with a potency or affinity are not part of this list.
measure-name: inhibition (%)
Give bare numbers, in %.

Reference set (9 entries):
compound: CCN(CC)C(=O)c1[nH]cnc1C(=O)NCc1ccc(CNC(=O)OC(C)(C)C)cc1
inhibition (%): -4.15

compound: COc1ccc(C(=O)N/N=C/c2ccc(OC)c(CN3CCCc4ccccc43)c2)cc1
inhibition (%): 8.38

compound: O=C(CSc1nnc(-c2c[nH]c3ccccc23)o1)N(Cc1ccccc1)c1ccc(F)cc1
inhibition (%): -6.56

compound: CN(CC(O)COCc1ccccc1F)C1CCCCC1 (stereo not given)
inhibition (%): -0.04

compound: CCOc1cc2c(cc1OCC)-n1cccc1C(c1ccc(F)cc1)NC2 (stereo not given)
inhibition (%): 4.18

compound: O=C(NC1CCOCC1)C1CCC(=O)N(Cc2ccc(Cl)cc2)C1 (stereo not given)
inhibition (%): -7.32

compound: Cc1ccc(-n2c(SCC(=O)N/N=C/c3c(C)nn(-c4ccccc4)c3C)nc3ccccc3c2=O)cc1
inhibition (%): 12

compound: CCOc1cc2c(cc1OCC)-n1cccc1C(c1ccc(OC)cc1)NC2 (stereo not given)
inhibition (%): 12.2

compound: CCOc1ccc(Br)cc1/C(C)=N\NC1=NCCN1
inhibition (%): -0.3

Now for a further compound.
[ask] Which inhibition value belongs to "C=C(C)c1cccc(C(C)(C)NC(=O)N(Cc2ccccc2)Cc2ccco2)c1" ?
[reply] 0.97

====

Experiment: M. tuberculosis growth inhibition, HTS (AID 449762);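 also: bacterial growth assessed after seven days of incubation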
Settings: M. tuberculosis H37Rv growth inhibition, 7H9 media; at 25 µM; active compounds read high
Hit rate of the full screen: of about 330,000 compounds, about 1,900 (0.58%) were called active. Another 4% or so got no clear call; they are omitted. Not all results are given here. Potency and affinity values are given separately.
Provide the reported inhibition of each item.
Numbers only, in %.

# annotated cases, reported inhibition shown
compound: Cc1cc(=O)[nH]c(SCC(=O)NC2CCCCCC2)n1
inhibition (%): 1.87
--
compound: CCc1nnc(NC(=O)CSC(=S)N2CCOCC2)s1
inhibition (%): -7.36
--
compound: O=C(Nc1cc(Cl)cc(Cl)c1)C1C2C=CC3(O2)C1C(=O)N(CCCN1CCOCC1)C3C(=O)NC1CCCCC1 (stereo unspecified)
inhibition (%): -1.97
--
compound: CC(=O)N(Cc1nc2sc(C)c(C)c2c(=O)[nH]1)C1CCCC1
inhibition (%): -3.15
--
compound: Cc1nnc(SCC(=O)NC2CCCCC2)[nH]c1=O
inhibition (%): -4.1

[ask] What value of inhibition has been recorded for this entry: "O=C(Nc1ccc(S(=O)(=O)Nc2ccnn2-c2ccccc2)cc1)C(F)(F)F"
[reply] 56.7

====

Assay: M. tuberculosis growth inhibition, HTS (AID 449762);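 also: bacterial growth assessed after seven days of incubation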
Details: M. tuberculosis H37Rv growth inhibition, 7H9 media; at 25 µM; active compounds read high
Out of some 330,000 compounds screened, about 1,900 (0.58%) were called active. Inconclusive results (about 4%) are left out. Not all results are given here. Entries with a potency or affinity are not part of this list.
Answer each item with its documented inhibition.
Answers are plain numbers, in %.

Take a look at these entries with their results.
compound: CCCCC(=O)Nc1cccn2ncnc12
measure-name: inhibition
numeric-value: -5.05
--
compound: O=C(OC(C(=O)Nc1ccc(Cl)c(C(F)(F)F)c1)c1ccccc1)C1=COCCO1 (stereo not drawn)
measure-name: inhibition
numeric-value: 45.5
--
compound: COCCn1c(-c2ccccc2)cc(C(=O)O)c1C
measure-name: inhibition
numeric-value: 6.01
--
compound: CCOc1ccc(NC(=O)COc2nsnc2N2CCOCC2)cc1
measure-name: inhibition
numeric-value: -1.39

Hi there! I need inhibition for each item below, if you can.
1. CC1(C)Oc2ccc3ccc(=O)oc3c2/C(=C/O)C1=O
2. O=C(Nc1ncc(Cc2ccccc2Cl)s1)c1ccc([N+](=O)[O-])cc1
3. COc1ccc(-c2c(C#Cc3ccsc3)c3cc(Br)ccc3n2C)cc1
4. O=c1c(O)c(-c2ccc3c(c2)OCO3)oc2ccccc12
5. COC1=Cc2c(ccc3ccc(=O)oc23)OC1(C)C
6. N#CCCN(C(=O)COC(=O)CCc1nc2ccccc2c(=O)[nH]1)c1ccc(F)cc1

[reply]
[2.64, 10.6, 8.44, 35.4, 1.79, -3.42]
